- TARGET OR TEST SYSTEM: AMP-activated protein kinase, AMPK (Homo sapiens) (UniProt P54646+O43741+P54619+Q9UGJ0+Q9Y478+Q13131+Q9UGI9)
- PROTOCOL DESCRIPTION: AMP-dependent Kinase enzyme assay. An in vitro enzyme assay that detects ADP turnover that is directly proportional to AMPK activity. This uses naive AMPK that is activated during the assay with MK-8722
- Type: functional
- Parameters: scale not given: direction of the effect not stated beside the values
- CONDITION NOTES: 30 µM
QUANTITY: Percent Effect (%)
Value expressed in %; do not type the unit.

Example results:
COMPOUND	Percent Effect / %
NC(=O)c1cccc(CC2CCN(C(=O)CO)C2)c1 (centres undefined)	10.3
COc1ccc(NC(=O)Cn2nc(C)c(C)cc2=O)cc1OC	-0.466
CCOc1ccc(C(C)NC(=O)N2CCC(C(N)=O)CC2)cc1OC (centres undefined)	4.64
CN(Cc1ccccc1Br)C(=O)Cn1nc(-c2ccc(F)cc2)oc1=O	0.817
Cc1ncccc1OC1(C(=O)NCCNc2ccccc2)CCNCC1	-15.1
O=C(CCn1cccn1)N1C[C@@H]2CC[C@H](C1)N(Cc1ccccn1)C2=O	-4.57
Cc1cc2nc(SCC(=O)N3CCCC3)n(C(C)C)c(=O)c2[nH]1	-3.68
COc1ccc(OCc2sc(C3(O)CCCNCC3)nc2C)cc1 (centres undefined)	3.29
Cc1nc(C)n(C2CCCN(C(=O)c3ccc(F)cc3F)C2)n1 (centres undefined)	0.572
CC(C)NC(=O)[C@H]1C[C@@H]2[C@@H](C1)OCCN2Cc1cnn(C)c1	4.75

Just so you know, measured Percent Effect for Cn1ccnc1N1CCN(C(=O)Cc2ccc(F)cc2)CC1 came out at 5.01

Just so you know, measured Percent Effect for N#Cc1ccc(OCCOc2ccccc2C(=O)N2CCOCC2)cc1 came out at -1.44

Just so you know, measured Percent Effect for O=C(NCCc1ccn(-c2ccccc2)n1)N1CCC1 came out at -0.615

Just so you know, measured Percent Effect for CCc1c(C(=O)NCC2CCS(=O)(=O)C2)cnn1-c1ccc(C)cc1 (centres undefined) came out at -2.2

Just so you know, measured Percent Effect for CCN(CC)C(=O)c1ccn(COc2ccccc2)n1 came out at 2.57

Just so you know, measured Percent Effect for CCc1nc(CN2CCN(C(=O)c3cnccn3)CC2)cs1 came out at -4.67

Just so you know, measured Percent Effect for Cc1noc(C2CCCCN2C(=O)NC2CCCC2)n1 (centres undefined) came out at 5.88

Just so you know, measured Percent Effect for O=C(NCc1nnc2n1CCCC2)N(Cc1ccccc1F)C1CC1 came out at -1.8

Just so you know, measured Percent Effect for CC(C)CN1CCc2[nH]cnc2C12CCN(C(=O)c1cccnc1)CC2 came out at -4.57

Just so you know, measured Percent Effect for Cc1csc(N2CCN(CC(=O)Nc3c(C)n[nH]c3C)CC2C)n1 (centres undefined) came out at -4.71

Just so you know, measured Percent Effect for Cc1cccc(CCC(=O)N2CCOCC2c2c(C)n[nH]c2C)c1 (centres undefined) came out at -2.62

Just so you know, measured Percent Effect for Cc1nsc(NC(=O)N2CCC(C(C)(C)O)CC2)n1 came out at -3.48

Just so you know, measured Percent Effect for Cn1cnnc1C1CCCN(C(=O)c2ccccc2Cl)C1 (centres undefined) came out at -0.796

Just so you know, measured Percent Effect for CN(C)C(=O)[C@@H]1C[C@@H]2CCN(Cc3nccs3)C[C@@H]2O1 came out at 4.31
